# Assayed Target: human MT1-MMP hemopexin domain (residues Cys319-Gly511, N-terminally His6-tagged soluble protein) (human) (UniProt P50281)
# Procedure Summary: FP competition on human MT1-MMP hemopexin domain (footnote a: tracer 17-69-07-N040; footnote e: 17-69-07-N004)
Numbered stars: 1 amine (or outer) side, 2 acyl side, 3 side chain; on linkers, the order of the positions; unused ones are H or OH. Bridge positions count the residues as written; N and C are the ends. Square brackets hold non-standard residues; d marks the D form. Ends that are not written are not given here. * marks the point of attachment. DM4 = maytansinoid, two hindering methyls on maytansine side, COc1cc2cc(c1Cl)N(C)C(=O)C[C@H](OC(=O)[C@H](C)N(C)C(=O)CCC(C)(C)S*)[C@]1(C)O[C@H]1[C@H](C)[C@@H]1C[C@@](O)(NC(=O)O1)[C@H](OC)/C=C/C=C(\C)C2; disulfide linker, one methyl on bicycle side = not defined here; 1Nal = N[C@@H](Cc1cccc2ccccc12)C(=O)O; TBMB = c1c(C[*:1])cc(C[*:3])cc1C[*:2]; disulfide linker = not defined here; Tle = CC(C)(C)[C@H](N)C(=O)O; DM1 = maytansinoid; βAla = NCCC(=O)O; Sar = CNCC(=O)O
Measurement Label: pKd
Please treat pKd as minus the base-10 logarithm of the molar concentration.

- {DM1-disulfide linker, one methyl on bicycle side}-[βAla][Sar][Sar][Sar][Sar][Sar][Sar][Sar][Sar][Sar][Sar]AC[dA]NE[1Nal][dA]CEDFYD[Tle]C (linker 13-19-26 via TBMB; reading uncertain; also: exact linker structure not given here) [BT17BDC-18]: 9.00
- H-G[Sar][Sar][Sar][Sar][Sar][Sar][Sar][Sar][Sar][Sar]ACYNEFGCEDFYDIC (linker 13-19-26 via TBMB; not fully specified (C-terminus)) [17-69-07-N219]: 9.09

Kindly consider the entry below.
Challenge: Which value of pKd has been reported for {DM4-disulfide linker}-[βAla][Sar][Sar][Sar][Sar][Sar][Sar][Sar][Sar][Sar][Sar]AC[dA]NE[1Nal][dA]CEDFYD[Tle]C (linker 13-19-26 via TBMB; reading uncertain; also: exact linker structure not given here) [BT17BDC-19] in the records?
Response given: 9.30
